- measurement parameters: in DMAc, 298.15 K
recorded metric: solubility (mole fraction)

Value lookup for solubility (mole fraction); key = "CC(=O)c1c(C)c([N+](=O)[O-])c(C(C)(C)C)c([N+](=O)[O-])c1C" 0.185

---

- measurement parameters: in n-heptane, 288.15 K
recorded metric: solubility (mole fraction)
Answer with a bare number; do not write a unit.

Value lookup for solubility (mole fraction); key = "CC(=O)c1c(C)c([N+](=O)[O-])c(C(C)(C)C)c([N+](=O)[O-])c1C" 0.00281

---

- measurement parameters: in DMF, 313.15 K
recorded metric: solubility (mole fraction)
Answer with a bare number; do not write a unit.

Value lookup for solubility (mole fraction); key = "CC(=O)c1c(C)c([N+](=O)[O-])c(C(C)(C)C)c([N+](=O)[O-])c1C" 0.191

---

- measurement parameters: in isopropanol, 288.15 K
recorded metric: solubility (mole fraction)
Answer with a bare number; do not write a unit.

Value lookup for solubility (mole fraction); key = "CC(=O)c1c(C)c([N+](=O)[O-])c(C(C)(C)C)c([N+](=O)[O-])c1C" 0.00259

---

- measurement parameters: in cyclohexane, 303.15 K
recorded metric: solubility (mole fraction)
Answer with a bare number; do not write a unit.

Value lookup for solubility (mole fraction); key = "CC(=O)c1c(C)c([N+](=O)[O-])c(C(C)(C)C)c([N+](=O)[O-])c1C" 0.00853

---

- measurement parameters: in n-heptane, 313.15 K
recorded metric: solubility (mole fraction)
Answer with a bare number; do not write a unit.

Value lookup for solubility (mole fraction); key = "CC(=O)c1c(C)c([N+](=O)[O-])c(C(C)(C)C)c([N+](=O)[O-])c1C" 0.00737

---

- measurement parameters: in DMF, 303.15 K
recorded metric: solubility (mole fraction)
Answer with a bare number; do not write a unit.

Value lookup for solubility (mole fraction); key = "CC(=O)c1c(C)c([N+](=O)[O-])c(C(C)(C)C)c([N+](=O)[O-])c1C" 0.149

---

- measurement parameters: in cyclohexane, 293.15 K
recorded metric: solubility (mole fraction)
Answer with a bare number; do not write a unit.

Value lookup for solubility (mole fraction); key = "CC(=O)c1c(C)c([N+](=O)[O-])c(C(C)(C)C)c([N+](=O)[O-])c1C" 0.00547

---

- measurement parameters: in THF, 298.15 K
recorded metric: solubility (mole fraction)

Value lookup for solubility (mole fraction); key = "CC(=O)c1c(C)c([N+](=O)[O-])c(C(C)(C)C)c([N+](=O)[O-])c1C" 0.221

---

- measurement parameters: in methanol, 293.15 K
recorded metric: solubility (mole fraction)

Value lookup for solubility (mole fraction); key = "CC(=O)c1c(C)c([N+](=O)[O-])c(C(C)(C)C)c([N+](=O)[O-])c1C" 0.00227

---

- measurement parameters: in n-butanol, 283.15 K
recorded metric: solubility (mole fraction)
Answer with a bare number; do not write a unit.

Value lookup for solubility (mole fraction); key = "CC(=O)c1c(C)c([N+](=O)[O-])c(C(C)(C)C)c([N+](=O)[O-])c1C" 0.0037

---

- measurement parameters: in acetonitrile, 293.15 K
recorded metric: solubility (mole fraction)
Answer with a bare number; do not write a unit.

Value lookup for solubility (mole fraction); key = "CC(=O)c1c(C)c([N+](=O)[O-])c(C(C)(C)C)c([N+](=O)[O-])c1C" 0.0259
